Biological target: Beta2 (Homo sapiens, UniProt P07550)
Sequence (P07550 whole entry): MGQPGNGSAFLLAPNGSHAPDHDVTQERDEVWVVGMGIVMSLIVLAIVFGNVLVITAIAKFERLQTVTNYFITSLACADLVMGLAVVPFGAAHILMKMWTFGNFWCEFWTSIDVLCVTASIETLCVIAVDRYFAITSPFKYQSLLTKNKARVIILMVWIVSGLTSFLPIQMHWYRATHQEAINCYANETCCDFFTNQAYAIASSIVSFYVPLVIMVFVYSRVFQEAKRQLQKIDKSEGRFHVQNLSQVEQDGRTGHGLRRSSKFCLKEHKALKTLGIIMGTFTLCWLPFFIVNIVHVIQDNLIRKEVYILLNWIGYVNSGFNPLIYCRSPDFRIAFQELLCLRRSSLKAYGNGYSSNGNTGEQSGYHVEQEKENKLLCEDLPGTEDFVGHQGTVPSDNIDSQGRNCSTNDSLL
Experiment: PDSP radioligand binding assay
Conditions: Table 5
pKi: −log10 of the molar value.
experimental-readout: pKi

The compound identified as COc1ccc(N2CCN(CCCNC(=O)Cn3c(=O)c4cccn4c4c(C)ccnc43)CC2)cc1 [Compound 1{3}] registered its pKi at < 5.00

====

Target: 5ht3 (Homo sapiens)
Sequence (P46098 24-478): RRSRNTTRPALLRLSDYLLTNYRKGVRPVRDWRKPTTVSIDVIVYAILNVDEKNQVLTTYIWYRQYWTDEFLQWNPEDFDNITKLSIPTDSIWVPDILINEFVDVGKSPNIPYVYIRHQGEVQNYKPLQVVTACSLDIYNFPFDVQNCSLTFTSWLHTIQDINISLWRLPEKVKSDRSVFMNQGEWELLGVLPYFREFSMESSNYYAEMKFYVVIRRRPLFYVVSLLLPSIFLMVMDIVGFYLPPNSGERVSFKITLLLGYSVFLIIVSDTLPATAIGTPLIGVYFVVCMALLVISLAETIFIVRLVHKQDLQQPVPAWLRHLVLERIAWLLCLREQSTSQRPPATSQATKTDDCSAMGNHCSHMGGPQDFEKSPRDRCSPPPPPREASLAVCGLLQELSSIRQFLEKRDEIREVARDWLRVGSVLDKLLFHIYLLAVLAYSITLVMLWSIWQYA
Assay: PDSP radioligand binding assay
Conditions: Table 10
pKi: −log10 of the molar value.
experimental-readout: pKi

The compound identified as Clc1ccc(CSc2nnc(-c3ccccn3)n2Cc2ccco2)cc1Cl [Compound 2{8}] registered its pKi at < 5.00

====

Biological target: KOR (Homo sapiens)
Sequence (P41145 whole entry): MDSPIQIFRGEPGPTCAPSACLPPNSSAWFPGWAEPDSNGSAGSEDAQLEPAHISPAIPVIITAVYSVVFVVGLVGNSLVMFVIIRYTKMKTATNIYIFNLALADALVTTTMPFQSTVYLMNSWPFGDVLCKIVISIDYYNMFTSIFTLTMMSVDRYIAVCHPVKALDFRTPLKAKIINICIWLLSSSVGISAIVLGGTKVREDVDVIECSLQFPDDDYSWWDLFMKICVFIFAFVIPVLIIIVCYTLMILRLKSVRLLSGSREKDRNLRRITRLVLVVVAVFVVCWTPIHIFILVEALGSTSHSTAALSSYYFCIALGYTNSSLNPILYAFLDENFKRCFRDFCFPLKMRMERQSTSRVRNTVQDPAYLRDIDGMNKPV
Experiment: DISCOVERX β-arrestin […] assay, agonist mode (KOR DRx)
Format: cell-based
Settings: at highest concentration tested, compared to dynorphin A (Emax=100%)
// values below are reported Emax (%)

The compound identified as `COc1ccc(CSc2nnc(-c3ccccn3)n2Cc2cccs2)cc1` registered its Emax (%) at ~130%

The compound identified as `Fc1cc(F)cc(CSc2nnc(-c3ccccn3)n2Cc2ccco2)c1` registered its Emax (%) at ~104%

The compound identified as `Brc1ccc(CSc2nnc(-c3ccccn3)n2Cc2ccco2)cc1` registered its Emax (%) at ~100%

The compound identified as `N#Cc1ccc(CSc2nnc(-c3ccccn3)n2Cc2ccco2)cc1` registered its Emax (%) at ~105%

The compound identified as `Cc1c(CSc2nnc(-c3ccccn3)n2Cc2ccco2)cccc1[N+](=O)[O-]` registered its Emax (%) at ~128%

The compound identified as `COC(=O)c1ccc(CSc2nnc(-c3ccccn3)n2Cc2cccs2)cc1` registered its Emax (%) at ~154%

The compound identified as `COc1cccc(CSc2nnc(-c3ccccn3)n2Cc2cccs2)c1` registered its Emax (%) at ~100%

The compound identified as `c1ccc(CSc2nnc(-c3ccccn3)n2Cc2cccs2)cc1` registered its Emax (%) at ~150%

***
The compound identified as `Cc1ccc(CSc2nnc(-c3ccccn3)n2Cc2cccs2)cc1` registered its Emax (%) at ~170%

The compound identified as `FC(F)(F)c1cc(CSc2nnc(-c3ccccn3)n2Cc2cccs2)ccc1Cl` registered its Emax (%) at ~109%

The compound identified as `Clc1ccc(CSc2nnc(-c3ccccn3)n2Cc2ccco2)c(Cl)c1` registered its Emax (%) at ~100%

The compound identified as `CC(C)c1ccc(CSc2nnc(-c3ccccn3)n2Cc2ccco2)cc1` registered its Emax (%) at 165%

The compound identified as `COC(=O)c1ccc(CSc2nnc(-c3ccccn3)n2Cc2ccco2)cc1` registered its Emax (%) at ~125%

The compound identified as `Brc1ccc(CSc2nnc(-c3ccccn3)n2Cc2cccs2)cc1` registered its Emax (%) at ~185%

The compound identified as `Fc1ccc(CSc2nnc(-c3ccccn3)n2Cc2cccs2)c(C(F)(F)F)c1` registered its Emax (%) at ~109%

The compound identified as `Fc1cc(F)cc(CSc2nnc(-c3ccccn3)n2Cc2cccs2)c1` registered its Emax (%) at ~150%

The compound identified as `CC(C)c1ccc(CSc2nnc(-c3ccccn3)n2Cc2cccs2)cc1` registered its Emax (%) at ~100%

The compound identified as `Fc1ccc(CSc2nnc(-c3ccccn3)n2Cc2cccs2)c(F)c1F` registered its Emax (%) at ~115%
